Value source: patent US20260069689A1

Attribute: t½
target: SARS-COV-2 RBD extracellular domain expressed with a C-terminal myc-myc-hexahistidine tag (SARS-COV-2 RBD-mmH) (SARS-CoV-2); assay: SPR Biacore, mAb captured on anti-hFc, RBD-mmH analyte, 37 C
Numbers only here, please. The scale is min.

As a guide, the following entries are already answered.
mAb14312 (antibody, V domains shown) VH: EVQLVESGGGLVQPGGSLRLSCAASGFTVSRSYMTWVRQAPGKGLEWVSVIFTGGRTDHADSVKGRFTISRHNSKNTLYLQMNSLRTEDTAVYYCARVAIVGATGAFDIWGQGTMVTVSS VL: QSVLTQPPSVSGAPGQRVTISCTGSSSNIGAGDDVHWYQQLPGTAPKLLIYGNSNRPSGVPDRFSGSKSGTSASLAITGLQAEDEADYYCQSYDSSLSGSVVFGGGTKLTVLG : 11.7
mAb15150 (antibody, V domains shown) VH: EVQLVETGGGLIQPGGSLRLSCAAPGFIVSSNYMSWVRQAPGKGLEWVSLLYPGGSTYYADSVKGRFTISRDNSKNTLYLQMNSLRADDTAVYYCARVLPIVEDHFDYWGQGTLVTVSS VL: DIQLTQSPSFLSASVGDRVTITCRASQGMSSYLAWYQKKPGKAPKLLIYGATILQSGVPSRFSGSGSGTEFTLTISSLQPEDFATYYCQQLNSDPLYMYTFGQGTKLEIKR : 147

Now examine the next entry.
Q. Tell me the measured t½ of mAb14284 (antibody, V domains shown) VH: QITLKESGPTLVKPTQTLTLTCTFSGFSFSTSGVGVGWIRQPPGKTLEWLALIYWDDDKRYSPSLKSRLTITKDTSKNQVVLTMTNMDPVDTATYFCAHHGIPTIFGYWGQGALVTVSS VL: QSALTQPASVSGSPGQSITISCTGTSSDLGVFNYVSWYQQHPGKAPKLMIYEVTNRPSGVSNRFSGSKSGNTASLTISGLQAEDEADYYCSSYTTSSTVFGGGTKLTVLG , please.
A. 19.1
